Can you tell me hERG current change (%, negative = inhibition) at 10uM for the items I'm about to list?
TARGET OR TEST SYSTEM: human ether-à-go-go-related gene (hERG) potassium channel (human, UniProt Q12809);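 also: peak tail current of the secondary pulse compared with the same well before compound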
Sequence (Q12809 whole entry, looked up): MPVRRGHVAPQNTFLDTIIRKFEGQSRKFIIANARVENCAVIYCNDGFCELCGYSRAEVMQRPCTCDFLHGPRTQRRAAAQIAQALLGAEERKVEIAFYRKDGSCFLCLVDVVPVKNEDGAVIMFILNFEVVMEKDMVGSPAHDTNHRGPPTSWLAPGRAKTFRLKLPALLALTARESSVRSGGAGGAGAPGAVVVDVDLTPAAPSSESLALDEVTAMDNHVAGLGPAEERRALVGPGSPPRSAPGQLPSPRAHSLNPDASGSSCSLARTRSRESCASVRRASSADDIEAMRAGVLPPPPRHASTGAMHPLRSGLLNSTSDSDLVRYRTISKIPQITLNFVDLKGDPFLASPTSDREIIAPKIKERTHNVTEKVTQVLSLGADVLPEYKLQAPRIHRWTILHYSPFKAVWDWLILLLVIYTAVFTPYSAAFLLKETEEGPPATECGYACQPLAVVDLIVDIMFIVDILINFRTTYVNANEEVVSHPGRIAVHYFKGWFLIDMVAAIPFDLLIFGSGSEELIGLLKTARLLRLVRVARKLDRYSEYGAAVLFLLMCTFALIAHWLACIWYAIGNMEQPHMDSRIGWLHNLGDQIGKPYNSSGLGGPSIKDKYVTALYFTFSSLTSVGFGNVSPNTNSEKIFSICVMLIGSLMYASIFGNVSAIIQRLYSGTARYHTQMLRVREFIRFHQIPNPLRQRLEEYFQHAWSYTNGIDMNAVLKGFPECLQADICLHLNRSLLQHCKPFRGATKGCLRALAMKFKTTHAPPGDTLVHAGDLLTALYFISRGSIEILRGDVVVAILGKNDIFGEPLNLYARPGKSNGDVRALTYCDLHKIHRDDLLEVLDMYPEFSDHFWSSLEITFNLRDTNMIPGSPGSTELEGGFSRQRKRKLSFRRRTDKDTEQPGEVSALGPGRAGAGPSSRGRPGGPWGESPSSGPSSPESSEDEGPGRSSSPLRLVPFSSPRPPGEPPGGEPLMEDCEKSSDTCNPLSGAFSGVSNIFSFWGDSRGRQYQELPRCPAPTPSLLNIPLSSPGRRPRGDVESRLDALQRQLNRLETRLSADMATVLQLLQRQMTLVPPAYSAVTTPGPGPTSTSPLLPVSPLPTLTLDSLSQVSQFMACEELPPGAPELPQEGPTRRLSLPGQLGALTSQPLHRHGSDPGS
ASSAY OVERVIEW: primary screen, population patch clamp on CHO cells stably expressing hERG; higher = less effect of the substance
The whole screen tested about 310,000 compounds, of which about 14,000 (4.5%) showed an effect of 50% or more. Effects have a minus sign here. Shown is part of a subset that was picked to be rich in strong results.
Give bare numbers, in %.

Working through the 5 compounds below one at a time, give hERG current change (%, negative = inhibition) at 10uM for each.
1. O=C(O)C(=O)O.c1ccc2c(OCCCN3CCCCCC3)cccc2c1
2. COC(=O)[C@H](CCSC)NC(=O)c1cc2c(cn1)[nH]c1ccccc12
3. O=C(CSc1nnc(CNC(=O)c2ccco2)o1)Nc1cccc(C(F)(F)F)c1
4. CCOC(=O)N1CCN(C(=O)C2CC(=O)N(c3ccc(OC)cc3)C2c2ccc(OC)cc2)CC1 (centres unmarked)
5. COCCn1c(C(C)C)nc2ccccc21

Reply:
1. -65.8
2. 0.117
3. -48.3
4. -13.2
5. 4.45

----------
TARGET OR TEST SYSTEM: human ether-à-go-go-related gene (hERG) potassium channel (human);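 also: peak tail current of the secondary pulse compared with the same well before compound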
ASSAY OVERVIEW: primary screen, population patch clamp on CHO cells stably expressing hERG; higher = less effect of the substance
In all, about 310,000 compounds went through this assay and about 14,000 (4.5%) showed an effect of 50% or more. The effect is printed as a negative number. The list comes from a sample in which strong results are over-represented; it also holds close analogues and randomly drawn compounds.
EXPERIMENTAL ENDPOINT: hERG current change (%, negative = inhibition) at 10uM (%)
Numbers only, in %.

Some entries whose results are on file:
In [3]: df
Out[3]:
                                   molecule  value_reported
0  Cn1ccnc1C(O)c1cc(C(C)(C)C)c(O)c(C(C)(C)C)c1 (centres unmarked)           -37.3
1  OC(COc1ccccc1)Cn1c2ccccc2c2ccccc21 (centres unmarked)               6
2  Cc1cccc(OCC(O)CNC(=O)c2ccccc2C(=O)O)c1 (centres unmarked)           -21.2
3  Cc1ccc(OCCCC(=O)Nc2ccc(S(=O)(=O)N3CCOCC3)cc2)cc1           -25.7

Parameters: items (list). Returns: hERG current change (%, negative = inhibition) at 10uM for each item.
1. CCOc1ccc(Cn2c3ccc(OC)cc3c3nc4ccccc4nc32)cc1
2. Cl.N=c1n(Cc2ccccc2)c2ccccc2n1CC(O)COc1ccccc1 (centres unmarked)
3. C/C=C/c1ccc(OCCOCCOc2cccc3cccnc23)c(OC)c1
4. C=CCc1ccc(OCCOCCOc2cccc3cccnc23)c(OC)c1
5. CC(=O)Nc1ccc(NC(=O)CC(C)n2ccnc2)cc1 (centres unmarked)
6. CC(C)COc1ccc(C(=O)N2C(=O)c3ccc(N)cc3C2=O)cc1

Reply:
[15.4, -74.6, -50.5, -29.3, 7.66, 4.32]

Provide the reported hERG current change (%, negative = inhibition) at 10uM of each entry below, same order.
1. O=C(NNc1ncnc2c1cnn2-c1ccc(F)cc1)c1cccs1
2. COc1ccc(OCC(O)Cn2c(=N)n(Cc3ccccc3)c3ccccc32)cc1.Cl (centres unmarked)
3. Cc1cccc(N2C(=O)CC(N(O)c3ccccc3)C2=O)c1 (centres unmarked)

Reply:
[6.55, -73.5, 9.2]

// each listed molecule needs a value for hERG current change (%, negative = inhibition) at 10uM
1. COc1ccc2c(c1OC)CN(C)CCc1cc3c(cc1C(=O)C2)OCO3
2. Cc1noc(C)c1COc1ccc(C(=O)N(C)CCOc2ccccc2)cc1

Reply:
1: -81; 2: -26.2

Provide the reported hERG current change (%, negative = inhibition) at 10uM of each entry below, same order.
1. C/C=C/c1ccc(OCCOc2cccc3cccnc23)c(OC)c1
2. COc1cc2c(cc1OC)C(=O)Cc1ccc3c(c1CN(C)CC2)OCO3
3. Cc1ccc(N2CC(C(=O)Nc3ccc(S(=O)(=O)N4CCCC4)cc3)CC2=O)cc1 (centres unmarked)
4. COc1ccc2c(-c3ccccc3)cc(N3CCOCC3)nc2c1.O=C(O)C(=O)O
5. CCCCOc1ccc(C(=O)NCC(=O)NC(C)CCc2ccccc2)cc1 (centres unmarked)

Reply:
1: 20.3; 2: -54.1; 3: -8.07; 4: 3.22; 5: -4.99
